# TARGET OR TEST SYSTEM: μ-receptor (isolated guinea pig ileum, GPI) (Cavia porcellus)
# Sequence (P97266 whole entry): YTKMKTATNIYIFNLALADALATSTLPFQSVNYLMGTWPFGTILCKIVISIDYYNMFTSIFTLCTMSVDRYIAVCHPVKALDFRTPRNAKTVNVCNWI
# METHOD SUMMARY: Peripheral opioid activity: inhibition of electrically-induced contractions of isolated guinea pig ileum (GPI)
# PROTOCOL CONDITIONS: read-out: Median EC50 in M; concentration reducing contraction amplitude by 50%; 5 replications
pEC50: −log10 of the molar value. Square brackets hold non-standard residues; d marks the D form. Peptide text beside a SMILES is read from it. * marks the point of attachment. X1 = O=C(O)CC[C@@H]1NC(=O)[C@H](CCCCN*)NC1=O
pEC50 below 7 gives false; pEC50 at or above it gives true.

{"MOLECULE": "C[C@@H](NC(=O)[C@@H](N)Cc1ccc(O)cc1)C(=O)N[C@@H](Cc1ccccc1)C(=O)NCC(=O)N[C@@H](Cc1ccc(O)cc1)C(=O)N1CCC[C@H]1C(=O)N[C@@H](CO)C(N)=O [Compound 48, H-Tyr-D-Ala-Phe-Gly-Tyr-Pro-Ser-NH2]", "CLASS ASSIGNMENT": "true"}
{"MOLECULE": "C[C@@H](NC(=O)[C@H](Cc1ccccc1)NC(=O)[C@@H](C)NC(=O)[C@@H](N)Cc1ccc(O)cc1)C(=O)N[C@@H](Cc1ccc(O)cc1)C(=O)N1CCC[C@H]1C(=O)N[C@@H](CO)C(=O)NCCCC[C@@H]1NC(=O)[C@H](CCC(=O)N[C@@H](Cc2c[nH]c3ccccc23)C(=O)O)NC1=O [Compound 47]", "CLASS ASSIGNMENT": "true"}
{"MOLECULE": "COC(=O)[C@H](Cc1c[nH]c2ccccc12)NC(=O)CC[C@@H]1NC(=O)[C@H](CCCCNC(=O)[C@@H](C)NC(=O)[C@H](Cc2ccccc2)NC(=O)[C@@H](C)NC(=O)[C@@H](N)Cc2ccc(O)cc2)NC1=O [Compound 45]", "CLASS ASSIGNMENT": "false"}
{"MOLECULE": "C[C@@H](NC(=O)[C@H](Cc1ccccc1)NC(=O)[C@@H](C)NC(=O)[C@@H](N)Cc1ccc(O)cc1)C(=O)NCCCC[C@@H]1NC(=O)[C@H](CCC(=O)O)NC1=O [Compound 44] (H-Y[dA]F[dA]-X1)", "CLASS ASSIGNMENT": "false"}
{"MOLECULE": "CNC(=O)[C@H](CO)NC(=O)[C@@H]1CCCN1C(=O)[C@H](Cc1ccc(O)cc1)NC(=O)[C@@H](C)NC(=O)[C@H](Cc1ccccc1)NC(=O)[C@@H](C)NC(=O)[C@@H](N)Cc1ccc(O)cc1 [Compound 50, H-Tyr-D-Ala-Phe-D-Ala-Tyr-Pro-Ser-NH-CH3, reference compound] (H-Y[dA]F[dA]YPS-NHMe)", "CLASS ASSIGNMENT": "true"}
{"MOLECULE": "C[C@@H](NC(=O)[C@H](Cc1ccccc1)NC(=O)[C@@H](C)NC(=O)[C@@H](N)Cc1ccc(O)cc1)C(=O)N[C@@H](Cc1ccc(O)cc1)C(=O)N1CCC[C@H]1C(=O)N[C@@H](CO)C(N)=O [Compound 49, H-Tyr-D-Ala-Phe-D-Ala-Tyr-Pro-Ser-NH2] (H-Y[dA]F[dA]YPS-NH2)", "CLASS ASSIGNMENT": "true"}
{"MOLECULE": "CC(C)C[C@H](NC(=O)[C@H](Cc1ccccc1)NC(=O)CNC(=O)[C@@H](C)NC(=O)[C@@H](N)Cc1ccc(O)cc1)C(=O)N[C@@H](CCCNC(=N)N)C(=O)O [Compound 56, H-Tyr-D-Ala-Gly-Phe-Leu-Arg-OH] (H-Y[dA]GFLR-OH)", "CLASS ASSIGNMENT": "true"}
{"MOLECULE": "C[C@@H](NC(=O)[C@H](Cc1ccccc1)NC(=O)[C@@H](C)NC(=O)[C@@H](N)Cc1ccc(O)cc1)C(=O)N[C@@H](Cc1ccc(O)cc1)C(=O)N1CCC[C@H]1C(=O)N[C@@H](CO)C(=O)NCCCC[C@@H]1NC(=O)[C@H](CCC(=O)N[C@@H](Cc2c[nH]c3ccccc23)C(N)=O)NC1=O [Compound 46]", "CLASS ASSIGNMENT": "true"}
{"MOLECULE": "C[C@@H](NC(=O)[C@H](Cc1ccccc1)NC(=O)[C@@H](C)NC(=O)[C@H](Cc1ccc(O)cc1)NC(=O)[C@@H](N)CCCNC(=N)N)C(=O)O [Compound 53, H-Arg-Tyr-D-Ala-Phe-D-AlaOH] (H-RY[dA]F[dA]-OH)", "CLASS ASSIGNMENT": "false"}
